# System: human red blood cells (hRBCs)
# assay: Hemolysis assay
# Assay type: cell-based
# study.conditions: hRBCs; FIG. 8 up to 100 μM
Where no end group is shown, it is not given here.
measure: hemolysis (in words)

| substance | target | result |
| --- | --- | --- |
| KKLLKKWLKLSKKALKLAL-NH2 [V8LQ19L C-2] | human red blood cells (hRBCs) | do not cause hemolysis |
| KKLLKKWLKLSKKALKLALSL-NH2 [V8LQ19L] | human red blood cells (hRBCs) | do not cause hemolysis |
| E1AM2: untagged (E1AM2), KKLLKKWVKLSKKALKLAQSL | human red blood cells (hRBCs) | do not cause hemolysis |
